Measured IC50 (Protein cereblon (Homo sapiens))
# unit: µM | format: bare number

Note to self: IC50 recorded for "NN1CC(=O)NC1=O" was 447

Note to self: IC50 recorded for O=c1cc[nH]c(=O)[nH]1 [URACIL] was 415

Note to self: IC50 recorded for COc1ccc(C2CNC(=O)C2)cc1OC1CCCC1 (centres undefined) [ROLIPRAM] was 202

====

measured.target: Protein cereblon (Homo sapiens)
Sequence (Q96SW2 whole entry, the tested form may be a part): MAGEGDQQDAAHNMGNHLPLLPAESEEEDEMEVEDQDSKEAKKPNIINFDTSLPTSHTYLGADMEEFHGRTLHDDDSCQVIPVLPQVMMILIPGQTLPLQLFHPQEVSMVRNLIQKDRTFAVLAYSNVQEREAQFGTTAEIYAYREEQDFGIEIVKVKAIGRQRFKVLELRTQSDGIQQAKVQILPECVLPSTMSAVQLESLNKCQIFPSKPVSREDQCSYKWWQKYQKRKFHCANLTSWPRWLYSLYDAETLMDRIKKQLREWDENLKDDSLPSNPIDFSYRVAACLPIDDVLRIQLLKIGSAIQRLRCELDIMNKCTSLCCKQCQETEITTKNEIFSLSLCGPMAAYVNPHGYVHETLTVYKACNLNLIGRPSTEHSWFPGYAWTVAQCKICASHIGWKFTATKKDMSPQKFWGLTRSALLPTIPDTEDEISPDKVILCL
test.name: Binding affinity to human CRBN-thalidomide binding domain expressed in Escherichia coli by measuring baseline corrected normalized fluorescence by MST based assay
Mark 1 (yes) for Ki under 200 µM, 0 (no) if at or over.

Consider the following illustrative entries.
molecule	assigned.category
NN1CC(=O)NC1=O	0 (no)
O=c1ccn([C@@H]2O[C@H](CO)[C@@H](O)[C@H]2O)c(=O)[nH]1	0 (no)
Nn1ccc(=O)[nH]c1=O	1 (yes)
COc1ccc(C2CNC(=O)C2)cc1OC1CCCC1 (configuration not stated)	1 (yes)

Lab log: compare recorded Ki with 200 µM; is it strictly lower for "O=C1CNC(=O)N1" ?
0 (no)

Lab log: compare recorded Ki with 200 µM; is it strictly lower for "O=c1cc[nH]c(=O)[nH]1" ?
0 (no)

Lab log: compare recorded Ki with 200 µM; is it strictly lower for "CN1CC(=O)NC1=O" ?
1 (yes)

====

Measured IC50 (Protein cereblon (Homo sapiens, UniProt Q96SW2))
# unit: µM | format: bare number

compound	IC50, µM
O=C1CNC(=S)N1	332
O=C1CCC(=O)N1 [SUCCINIMIDE]	22.3
CN1CC(=O)NC1=O	137
O=C1CNC(=O)N1	421
O=c1ccn([C@@H]2O[C@H](CO)[C@@H](O)[C@H]2O)c(=O)[nH]1	757

Note to self: IC50 recorded for "Nn1ccc(=O)[nH]c1=O" was 84.8

Note to self: IC50 recorded for "COc1c(-c2ccc3cc(NS(C)(=O)=O)ccc3c2)cc(-n2ccc(=O)[nH]c2=O)cc1C(C)(C)C" was 15.6

====

Measured IC50 (UniProt:Q96SW2)

Reference set, count: 2
compound	reading
O=C1CN(/N=C/C=C/c2ccc([N+](=O)[O-])o2)C(=O)N1 [FURAZIDIN]	> 1000 µM
CC(C)OC(=O)[C@H](C)N[P@](=O)(OC[C@H]1O[C@@H](n2ccc(=O)[nH]c2=O)[C@](C)(F)[C@@H]1O)Oc1ccccc1 [SOFOSBUVIR]	> 1000 µM

Observed IC50, UniProt:Q96SW2, "O=C1CNCN1" : > 5000 µM

Observed IC50, UniProt:Q96SW2, "O=c1ccn([C@@H]2O[C@H](COP(=O)(O)O)[C@@H](O)[C@H]2O)c(=O)[nH]1" : > 5000 µM

Measured values drawn from ChEMBL document CHEMBL4673389 for this set.
